meta.source: patent US5047419A

assay: In vitro photodynamic therapy, U251 cells; assay type: cell-based, human; conditions: human, u251 glioma cells; U251, 1 × 10^-6 M, dark; read-out: % Surviving Fraction, Dark
readout_kind: viability at 1 µM
Give your result as the value with the unit written after it.

>  <molecule>
CC(C)(C)C1=CC(=CC=Cc2cc(C(C)(C)C)[te+]c(C(C)(C)C)c2)C=C(C(C)(C)C)[Te]1 [Dye 4]

>  <viability at 1 µM>
100%

$$$$

Next:
Need viability at 1 µM, item CC(C)(C)C1=CC(=Cc2cc(C(C)(C)C)[te+]c(C(C)(C)C)c2)C=C(C(C)(C)C)[Te]1 [Dye 12]
55%
